Recorded EC50(pM), cell agonistic activity for the following binders
# SYSTEM_NAME: human GLP-1 receptor (human, UniProt P43220 24-463)
# EXPERIMENTAL_PROTOCOL: cell-based or functional assay
Non-standard residues stand in square brackets, D forms with d. No end group written: not given here. Aib = CC(C)(N)C(=O)O

| BINDER | EC50(pM), cell agonistic activity |
| --- | --- |
| Y[Aib]EGTFISDYSIALDRLHQEDFVKWLLAQRG (also: long-acting conjugating component, site and structure not given here) [Peptide 15 (long-acting conjugate of GIP analog, Seq ID. 15)] | > 100 pM |
| Y[Aib]EGTFISDYSIALDEIHQKDFVNWLLAQRG (also: long-acting conjugating component, site and structure not given here) [Peptide 5 (long-acting conjugate of GIP analog, Seq ID. 5)] | > 100 pM |
| Y[Aib]EGTFISDYSIALDELHQKDFVNWLLAQRG (also: long-acting conjugating component, site and structure not given here) [Peptide 6 (long-acting conjugate of GIP analog, Seq ID. 6)] | > 100 pM |
| Y[Aib]EGTFISDYSIALDK(18‑(((23R)-23-carboxyl-2,11,20-trioxo-10,19-diaza-4,7,13,16-tetraoxatricosyl-23-yl)amino)‑18‑oxooctadecanoic acid acetyl)IHQQDFVNWLLAQRG | > 100 pM |
